experimental-system: T1, human NK1 receptor (human, UniProt P25103 1-407)
T1 construct: whole, on cells; Used as membrane preparations of transfected CHO cells; also called hNK1; human neurokinin-1 receptor
T1 sequence (P25103 whole entry): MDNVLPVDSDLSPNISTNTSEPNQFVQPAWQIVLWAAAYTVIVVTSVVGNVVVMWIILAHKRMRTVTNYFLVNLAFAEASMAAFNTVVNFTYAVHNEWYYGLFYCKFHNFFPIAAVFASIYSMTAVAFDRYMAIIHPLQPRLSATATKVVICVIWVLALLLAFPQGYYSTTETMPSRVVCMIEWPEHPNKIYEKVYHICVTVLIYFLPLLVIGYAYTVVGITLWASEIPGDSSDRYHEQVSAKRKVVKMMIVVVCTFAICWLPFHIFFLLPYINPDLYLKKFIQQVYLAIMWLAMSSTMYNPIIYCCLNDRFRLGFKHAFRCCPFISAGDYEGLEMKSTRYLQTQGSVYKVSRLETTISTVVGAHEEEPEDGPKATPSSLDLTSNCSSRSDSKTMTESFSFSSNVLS
protocol-notes: radioligand competition vs [3H]substance P, membranes of hNK1 CHO cells
pKi: −log10 of the molar value. Square brackets hold non-standard residues; d marks the D form. Ends that are not written are not given here. * marks the point of attachment. Glc = O-glucosyl on Ser side chain (Ser(OGlu)/Ser(OGlc)); NH(3,5-(CF3)2-benzyl) = FC(F)(F)c1cc(CN*)cc(C(F)(F)F)c1; OBzl(3,5-(CF3)2) = FC(F)(F)c1cc(CO*)cc(C(F)(F)F)c1; NH‑Bn(CF3)2 = C-terminal Bn(CF3)2 amide; Dmt = Cc1cc(O)cc(C)c1C[C@H](N)C(=O)O; NMe(benzyl) = CN(Cc1ccccc1)*; Nle = CCCC[C@H](N)C(=O)O; NHBn = c1ccc(CN*)cc1; OBn = c1ccc(CO*)cc1
Label scheme for pKi: group A: < 9; group B: ≥ 9 and < 10; group C: ≥ 10

// below: answered binders
- binder: "[Dmt][dA]GFMPLW-NHBn [DmtDAlaGlyPheMetProLeuTrpNHBn (TY034)]"
  label-class: "group A"
- binder: "YAGFXPLW (Dmt at 1; D-Ala at 2; Nle at 5 (X); C-terminal NMe-3,5-Bn(CF3)2 amide) [DmtDAlaGlyPheNleProLeuTrpNMeBn(CF3)2 (TY052)]"
  label-class: "group B"
- binder: "YAGFXPLW (D-Ala at 2; Nle at 5 (X); C-terminal NH-Bn(CF3)2 amide) [TyrDAlaGlyPheNleProLeuTrpNHBn(CF3)2 (TY045)]"
  label-class: "group C"

Inquiry: Which category does the recorded pKi put Y[dA]GFM-NH2 [TyrDAlaGlyPheMetNH2 (TY040)] in?
Reply text: group A

Inquiry: Which category does the recorded pKi put Y[dA]GFFPLW-OBn [TyrDAlaGlyPhePheProLeuTrpOBn (TY014)] in?
Reply text: group B

Inquiry: Which category does the recorded pKi put Y[dA]GFPLW-{NMe(benzyl)} [TyrDAlaGlyPheProLeuTrpNMeBn (TY010)] in?
Reply text: group A

Inquiry: Which category does the recorded pKi put Y[dA]GFGPLW-{OBzl(3,5-(CF3)2)} [TyrDAlaGlyPheGlyProLeuTrpOBn(CF3)2 (TY006)] in?
Reply text: group C

Inquiry: Which category does the recorded pKi put [Dmt][dA]GF[Nle]PS(Glc)W-{NH‑Bn(CF3)2} [DmtDAlaGlyPheNleProSer(OGlu)TrpNHBn(CF3)2 (TY056)] in?
Reply text: group C

Inquiry: Which category does the recorded pKi put Y[dA]GFSPLW-{NH(3,5-(CF3)2-benzyl)} (not fully specified (residue 5); printed as TyrDAlaGlyPheSer(OGlu)ProLeuTrpNHBn(CF3)2) [TyrDAlaGlyPheSer(OGlu)ProLeuTrpNHBn(CF3)2 (TY042)] in?
Reply text: group C

Inquiry: Which category does the recorded pKi put YAGFMPLW (D-Ala at 2; Met(O) (oxidized methionine) at 5; C-terminal O-3,5-Bn(CF3)2 ester) [TyrDAlaGlyPheMet(O)ProLeuTrpOBn(CF3)2 (TY023)] in?
Reply text: group C

Inquiry: Which category does the recorded pKi put Y[dA]GFLPLW-{OBzl(3,5-(CF3)2)} [TyrDAlaGlyPheLeuProLeuTrpOBn(CF3)2 (TY004)] in?
Reply text: group C
